- Tested on: HCT-116 colon
- Test protocol: NCI tumour cell line growth inhibition, 48 h; in the data active = GI50 below about 0.43 µM; inactive = the rest
Outcomes: 1 (yes) for active, 0 (no) for inactive

INSERT INTO results (compound, answer_label) VALUES
  ('N#Cc1c(N)nc(N2CCOCC2)c(C#N)c1-c1ccccn1', '0 (no)'),
  ('C/C(=C\c1cc(C(F)(F)F)n(-c2ccc(N)cc2)n1)[C@@H]1C[C@@H]2O[C@]2(C)CCC[C@H](C)[C@H](O)[C@@H](C)C(=O)C(C)(C)[C@@H](O)CC(=O)O1', '1 (yes)'),
  ('Cc1ccc(NC(=O)CSc2nnc3n(Cc4ccccc4)c(=O)c4c(C)c(C(N)=O)sc4n23)cc1', '0 (no)'),
  ('Cc1ccc(C(=O)/C(=C\c2ccc([N+](=O)[O-])cc2)S(=O)Cc2ccc(Cl)cc2)cc1 (centres undefined)', '0 (no)'),
  ('Clc1ccccc1CNc1c2ccccc2nc2ccccc12', '0 (no)'),
  ('O=[N+]([O-])c1cc(C(F)(F)F)ccc1Sc1ccc(C(F)(F)F)cc1[N+](=O)[O-]', '0 (no)'),
  ('O=C(/C=C/C12c3ccccc3C(c3ccccc31)C1C(=O)NC(=O)C12)c1ccc(F)cc1 (centres undefined)', '0 (no)'),
  ('CC1=C(C(=O)Nc2cc(Cl)c3[nH]ncc3c2)C(c2ccc(C(F)(F)F)cc2)CC(=O)N1 (centres undefined)', '0 (no)'),
  ('N#C/C(=C\c1ccc(Br)cc1)n1nnc2cc(Cl)c(Cl)cc21', '0 (no)');

---

- Tested on: SN12C renal
- Test protocol: NCI tumour cell line growth inhibition, 48 h
*1 amine or outer side, *2 acyl side, *3 side chain or, on linkers, in order; H or OH if unused. Where a SMILES comes first, the peptide text is derived from it. Bridges are numbered along the chain shown (N, C = ends). [ ]: non-standard residue; d: D form. The star is where a group is joined. X34 = O=C(C(CCCCNO[*:3])N[*:1])[*:2]; Fmoc = O=C(OCC1c2ccccc2-c2ccccc21)*
TGI listing for selected compounds.
Quantity kind: TGI

INSERT INTO measurements (compound, test_result) VALUES
  ('CSc1nc2c(c(N3CCOCC3)n1)C(O)n1c(nc3ccccc31)S2 (centres undefined)', '> 100 µM'),
  ('COC(=O)c1cc2c3ccccc3[nH]c2c2sccc12', '61.8 µM'),
  ('CCN(CCCl)c1cc(CN(C)C)cc(NC(=O)C23CCC(C(=O)Nc4cc(CN(C)C)cc(N(CC)CCCl)c4)(CC2)CC3)c1', '2.39 µM'),
  ('NC(=O)CNC(=O)C1CCCN1C(=O)C1CCCCNOC(=O)CCC(NC(=O)OCC2c3ccccc3-c3ccccc32)C(=O)NC(Cc2c[nH]c3ccccc23)C(=O)N1 (centres undefined) (Fmoc-EW[X34]PG-NH2; ester 1-3; configuration not given here)', '> 100 µM'),
  ('O=C(CCc1ccccc1)n1cccc1CO', '> 100 µM'),
  ('CCCCCCCCCNC(=O)/C=C/c1ccc(O)c(O)c1', '23.1 µM'),
  ('COc1ccc(NC(C)=O)c(C(O)CCNC(C)=O)c1 (centres undefined)', '> 100 µM'),
  ('O=NNc1ccc(Sc2ccc(NN=O)cn2)nc1', '> 100 µM'),
  ('C=CCN1/C(=C2\SC(=S)N(c3ccc(C)cc3)C2=O)Sc2c1nc[nH]c2=O', '> 100 µM');
